system under test: Ataxin-2 (Homo sapiens) (UniProt Q99700)
Sequence (Q99700 whole entry): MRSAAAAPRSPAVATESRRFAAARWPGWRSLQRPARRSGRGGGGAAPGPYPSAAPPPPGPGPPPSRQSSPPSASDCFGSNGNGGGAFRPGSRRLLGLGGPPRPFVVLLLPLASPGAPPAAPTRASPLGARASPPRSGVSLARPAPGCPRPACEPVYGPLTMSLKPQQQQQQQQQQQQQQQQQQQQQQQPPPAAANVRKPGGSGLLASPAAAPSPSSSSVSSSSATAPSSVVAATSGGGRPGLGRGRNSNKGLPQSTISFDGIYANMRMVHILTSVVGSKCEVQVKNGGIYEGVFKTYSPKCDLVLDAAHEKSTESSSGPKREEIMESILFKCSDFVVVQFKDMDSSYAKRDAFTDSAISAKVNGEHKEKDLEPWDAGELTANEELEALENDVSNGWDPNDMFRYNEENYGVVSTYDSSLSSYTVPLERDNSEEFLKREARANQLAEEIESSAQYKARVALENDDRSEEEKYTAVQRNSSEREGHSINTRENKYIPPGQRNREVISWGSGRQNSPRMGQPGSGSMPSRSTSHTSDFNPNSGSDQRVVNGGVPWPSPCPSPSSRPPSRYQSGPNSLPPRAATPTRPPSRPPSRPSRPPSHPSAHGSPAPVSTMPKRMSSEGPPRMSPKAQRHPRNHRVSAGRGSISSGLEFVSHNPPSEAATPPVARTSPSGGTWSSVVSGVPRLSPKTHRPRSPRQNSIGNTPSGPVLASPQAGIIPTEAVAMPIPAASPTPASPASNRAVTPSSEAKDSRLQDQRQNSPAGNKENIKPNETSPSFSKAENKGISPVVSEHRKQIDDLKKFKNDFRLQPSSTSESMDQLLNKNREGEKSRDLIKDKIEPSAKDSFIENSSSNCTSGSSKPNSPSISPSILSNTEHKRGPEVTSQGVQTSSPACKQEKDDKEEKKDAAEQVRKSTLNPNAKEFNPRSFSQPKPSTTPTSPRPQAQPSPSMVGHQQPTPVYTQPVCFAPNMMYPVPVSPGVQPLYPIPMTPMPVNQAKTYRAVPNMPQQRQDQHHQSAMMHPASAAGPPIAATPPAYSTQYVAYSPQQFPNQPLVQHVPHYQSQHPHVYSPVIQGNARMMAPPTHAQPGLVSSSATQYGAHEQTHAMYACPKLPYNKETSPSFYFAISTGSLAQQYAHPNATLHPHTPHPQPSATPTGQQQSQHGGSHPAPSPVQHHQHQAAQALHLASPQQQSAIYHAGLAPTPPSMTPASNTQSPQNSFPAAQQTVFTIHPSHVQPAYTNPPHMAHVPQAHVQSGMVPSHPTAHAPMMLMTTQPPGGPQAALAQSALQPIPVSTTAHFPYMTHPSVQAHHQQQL
method notes: qHTS for Inhibitors of ATXN expression.
Type: functional
Screen size: about 400,000 compounds; about 2,100 (0.53%) were called active. Not shown: some 14% with an inconclusive outcome. The sample holds actives, similar compounds and a random draw of the others, so the mix is not that of the screen.
measurement label: outcome

O=C(c1ccc(-n2c(SCc3cc(F)ccc3F)nc3ccccc3c2=O)cc1)N1CCOCC1
inactive
CNc1nc(-c2ccccc2)cc(-c2ccccc2)n1
inactive
CCOC(=O)c1cc2c(=O)n3ccccc3nc2n(Cc2ccco2)/c1=N\C(=O)c1ccc(F)cc1
inactive
COc1ccccc1-c1ccc(SCc2cccc(F)c2)nn1
inactive

// moving on: another record for outcome
Query: Please list outcome recorded for the molecule CCC1(CC)Nc2ccccc2C(=O)N1c1ccc(OC)cc1
Result: inactive

---

system under test: Ataxin-2 (Homo sapiens) (UniProt Q99700)
method notes: qHTS for Inhibitors of ATXN expression.
Type: functional
The campaign covered roughly 400,000 compounds. About 2,100 (0.53%) were called active. Not shown: some 14% with an inconclusive outcome. How the calls were made is not given here. What follows is part of a selection rich in actives, with near analogues and random picks from the rest.
Outcome (select one): YES for active, NO for inactive

Check out these entries, answers already filled in.
Cc1ccc(NC(=O)CN(C)C(=O)COC(=O)c2nccnc2N)cc1
NO
Cc1c(NC(=O)CCC2CCCCC2)cc(C(=O)N2CCOCC2)cc1[N+](=O)[O-]
NO
O=C(/C=C/c1ccc([N+](=O)[O-])cc1)c1ccccc(=O)c1O
YES
CC(=O)Nc1ccc(S(=O)(=O)NC(C)C(=O)NCC(c2ccco2)N2CCCCC2)cc1 (stereo not given)
NO

Query: What outcome does the record of this test show for CCN(CC)c1ccc(/C=N\NC(=O)c2cccc3cc[nH]c23)cc1 ?
Result: NO
